- TARGET_UNDER_TEST: α1 homomeric glycine receptors (Rattus norvegicus)
- Construct: expressed in transfected cells; host or cells: HEK 293, transient electroporation, cDNA in pCIS2, GFP cDNA co-transfected as marker
- ASSAY_PROTOCOL: Co-activation of the current response to 10 μM glycine, whole-cell patch clamp, transfected HEK 293 cells
- Assay type: cell-based
- REPORTED_CONDITIONS: read-out: EC50 (μM), normalised coactivating response, α1 homomer
Parameter: EC50. Scope: all listed entries.
Give the number; µM is assumed, so skip it.

Recorded EC50, per entry:
Cc1cc(O)cc(C)c1Cl [3,5 dimethyl-4-chlorophenol]    13
Cc1cccc(O)c1 [3 methylphenol]    59

## Input Quickly give me recorded EC50 for Cc1cc(C)cc(O)c1 [3,5 dimethylphenol]
## Output 254

## Input Report measured EC50; entry is Cc1cccc(C)c1O [2,6 dimethylphenol]
## Output 226

###

Readings of EC50 for the listed compounds
- TARGET_UNDER_TEST: α1 homomeric glycine receptors (Rattus norvegicus, UniProt P07727)
- Construct: expressed in transfected cells; host or cells: HEK 293, transient electroporation, cDNA in pCIS2, GFP cDNA co-transfected as marker
- Sequence (P07727 29-457): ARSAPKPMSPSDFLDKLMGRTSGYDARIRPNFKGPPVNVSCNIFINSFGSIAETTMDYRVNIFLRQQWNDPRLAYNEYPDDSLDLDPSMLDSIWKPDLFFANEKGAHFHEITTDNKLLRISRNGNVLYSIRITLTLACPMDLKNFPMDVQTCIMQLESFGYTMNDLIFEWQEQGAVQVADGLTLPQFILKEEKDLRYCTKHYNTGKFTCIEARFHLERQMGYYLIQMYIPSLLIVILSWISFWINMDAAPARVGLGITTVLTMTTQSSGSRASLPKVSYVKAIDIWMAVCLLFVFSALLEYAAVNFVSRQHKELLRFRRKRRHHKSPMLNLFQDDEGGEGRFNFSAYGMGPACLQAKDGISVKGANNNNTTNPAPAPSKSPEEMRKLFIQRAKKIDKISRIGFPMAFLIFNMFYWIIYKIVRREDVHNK
- ASSAY_PROTOCOL: Direct activation of Cl- inward currents (agonist applied alone), whole-cell patch clamp, HEK 293
- Assay type: cell-based
- REPORTED_CONDITIONS: read-out: half-maximum concentration (EC50) for direct activation
Please state the figure in µM; there is no need to write the unit.

Cc1cccc(C)c1O    1410

## Input Assign EC50 to the following record: Cc1cc(C)cc(O)c1
## Output 1470

These data points were gathered from patent US20160095823A1.
